B1: TPD52L1 (parent)
chain: ISKKFGDMSYSIRHSISMPAMRNS

Variants of: B1
ASSAY REMARKS: protein stability index of a GFP-peptide fusion (GPS, HEK-293T) (PSI 1-6); higher = more stable;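 further: lentivirally expressed fusions sorted by FACS into six bins by GFP to DsRed ratio, PSI derived from sequencing read proportions per bin multiplied by bin number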
APPLIED CONDITIONS: c terminus: a fixed tail appended
Record form. Attribute: protein stability index. Fill in for each entry.
Number only, no unit.

// recorded protein stability index for K4I : 1.98

// recorded protein stability index for S11I : 2.03

// recorded protein stability index for G6C : 1.98

// recorded protein stability index for S11K : 1.99

// recorded protein stability index for S17I : 2.03

// recorded protein stability index for A20V : 2.95

// recorded protein stability index for F5D : 2.46

// recorded protein stability index for I12C : 1.54

// recorded protein stability index for F5T : 2.24

// recorded protein stability index for S9F : 2

// recorded protein stability index for H14P : 2.56

// recorded protein stability index for S17K : 2.13

// recorded protein stability index for I16Y : 2.12

// recorded protein stability index for Y10G : 3.06

// recorded protein stability index for M8E : 3.18

// recorded protein stability index for I1T : 2.9

// recorded protein stability index for M18P : 2.64

// recorded protein stability index for I1Y : 1.54

// recorded protein stability index for P19L : 2.35

// recorded protein stability index for Y10Q : 2.76

// recorded protein stability index for K4S : 2.71

// recorded protein stability index for S17G : 2.42

// recorded protein stability index for R13K : 2.14

// recorded protein stability index for M21F : 2.31

// recorded protein stability index for S2R : 2.54

// recorded protein stability index for A20F : 2.2

// recorded protein stability index for N23Q : 2.29

// recorded protein stability index for K3F : 4.67

// recorded protein stability index for S2C : 1.82

// recorded protein stability index for S2A : 2.41

// recorded protein stability index for M18N : 2.28

// recorded protein stability index for R22E : 2.18

// recorded protein stability index for Y10H : 2.69

// recorded protein stability index for R22L : 1.82

// recorded protein stability index for K3D : 2.34

// recorded protein stability index for S24H : 2.42

// recorded protein stability index for I1L : 2.23

// recorded protein stability index for G6H : 1.88

// recorded protein stability index for I12H : 2.6

// recorded protein stability index for Y10N : 2.73

// recorded protein stability index for H14E : 2.33

// recorded protein stability index for S11T : 2.38

// recorded protein stability index for M21I : 2.39

// recorded protein stability index for D7N : 1.67

// recorded protein stability index for R22A : 2.23

// recorded protein stability index for R13W : 2.29

// recorded protein stability index for S17F : 2.13

// recorded protein stability index for H14S : 1.8

// recorded protein stability index for G6R : 2.35

// recorded protein stability index for S17N : 2.25

// recorded protein stability index for Y10W : 1.93

// recorded protein stability index for M18A : 2.64

// recorded protein stability index for R13E : 2.48

// recorded protein stability index for P19D : 2.2

// recorded protein stability index for S2Q : 2.37

// recorded protein stability index for N23V : 1.84

// recorded protein stability index for H14I : 2.73

// recorded protein stability index for G6A : 1.65

// recorded protein stability index for R13D : 2.49

// recorded protein stability index for P19G : 2.6

// recorded protein stability index for M8H : 2.33

// recorded protein stability index for S9L : 1.42

// recorded protein stability index for R13G : 2.45

// recorded protein stability index for F5G : 3.29

// recorded protein stability index for S9N : 2.36

// recorded protein stability index for P19S : 1.97

// recorded protein stability index for F5E : 3.06

// recorded protein stability index for I12G : 2.4

// recorded protein stability index for F5I : 2.37

// recorded protein stability index for I16H : 2.36

// recorded protein stability index for K4L : 1.52
